- System: COLO 205 colon
- Experimental details: NCI tumour cell line growth inhibition, 48 h
Measurement type: GI50

Given the molecule C/C(=N\O)c1cccc(Nc2cc(-n3ccnc3)c3ccccc3n2)c1 , what is its reported GI50?
13 µM

What do we get for COc1cc(C(=O)c2cc(C)c3[nH]c4ccc(O)cc4c3c2C)cc(OC)c1OC ?
0.0298 µM

What do we get for CC(C)C[C@H](NC(=O)CCn1ccc2ccccc2c1=O)B(O)O ?
5.06 µM

What do we get for Oc1c(-c2cc(C(F)(F)F)[nH]n2)cc(Cl)c(OCc2ccc(Cl)cc2)c1-c1ccc(Cl)c(C(F)(F)F)c1 ?
0.867 µM

What do we get for C[n+]1c2ccccc2nc2c(N)cc(N)cc21 ?
3.49 µM
